- Tested on: HL-60
- PROTOCOL: Cytotoxicity against Homo sapiens (human) HL60 cells after 24 hr by MTT assay
- Format: functional, cell-based
- RUN_CONDITIONS: HL-60, 24 h
MEASURED_QUANTITY: IC50 (µM)
I only need the number, in µM, no unit after it.

// solved cases for IC50 follow
>  <COMPOUND>
Nc1cccc(N2C(=O)C3C4C=CC(CC4)C3C2=O)c1 (stereo unspecified)

>  <MEASURED_QUANTITY>
IC50

>  <MEAS_VALUE>
64.1

$$$$
>  <COMPOUND>
CC1=C(C)C(=O)N(Cc2ccccc2N)C1=O

>  <MEASURED_QUANTITY>
IC50

>  <MEAS_VALUE>
139

$$$$
>  <COMPOUND>
O=C1C2C3C=CC(CC3)C2C(=O)N1c1ccccc1 (stereo unspecified)

>  <MEASURED_QUANTITY>
IC50

>  <MEAS_VALUE>
118

$$$$
>  <COMPOUND>
Nc1ccc(N2C(=O)[C@@H]3C4C=CC(CC4)[C@@H]3C2=O)cc1

>  <MEASURED_QUANTITY>
IC50

>  <MEAS_VALUE>
166

$$$$
>  <COMPOUND>
O=C1C2C3C=CC(CC3)C2C(=O)N1c1ncc(Cl)cc1Cl (stereo unspecified)

>  <MEASURED_QUANTITY>
IC50

>  <MEAS_VALUE>
139

$$$$

Q: For the compound shown here, Cc1ccc2c(c1)C(=O)N(c1ccc(/N=N\c3ccccc3)cc1)C2=O , give the reported IC50.
A: 59.5

Q: Quick one: IC50 of Cc1ccc2c(c1)C(=O)N(c1ccc(-c3ccccc3)cc1)C2=O ?
A: 59.5

Q: For the compound shown here, Nc1ccccc1N1C(=O)C2C3C=CC(CC3)C2C1=O (stereo unspecified) , give the reported IC50.
A: 67.6

Q: For O=C1c2ccccc2C(=O)N1c1ccc(-c2ccccc2)cc1 , what is its reported IC50?
A: 119

Q: Which IC50 value is on record for O=C1c2ccccc2C(=O)N1c1ccc(Cl)cn1 ?
A: 67.2

Q: Name the recorded IC50 for Nc1cccc(CN2C(=O)c3ccccc3C2=O)c1 .
A: 78.1

Q: Return reported IC50; argument: O=C1C2C3C=CC(CC3)C2C(=O)N1c1ccc(-c2ccccc2)cc1 (stereo unspecified)
A: 104

Q: Look up IC50: O=C1c2ccccc2C(=O)N1c1cccc([N+](=O)[O-])c1
A: 174
